System: SW13;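 also: IC50 is inhibition of SW13 cell growth, read out with a cell viability assay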
Test: cells
Assay type: functional, cell-based
Conditions: Homo sapiens
Description: SANGER: Inhibition of human SW13 cell growth in a cell viability assay.
pIC50: −log10 of the molar value.
measurement-type: pIC50

[[record]]
molecule = "Cn1c(=O)n(-c2ccc(C(C)(C)C#N)cc2)c2c3cc(-c4cnc5ccccc5c4)ccc3ncc21"
measurement_type = "pIC50"
result_qualifier = "="
numeric_value = 7.18

[[record]]
molecule = "O=c1cc(N2CCOCC2)oc2c(-c3cccc4c3sc3ccccc34)cccc12"
measurement_type = "pIC50"
result_qualifier = "<"
numeric_value = 5.70

[[record]]
molecule = "C[C@]12O[C@H](C[C@]1(O)CO)n1c3ccccc3c3c4c(c5c6ccccc6n2c5c31)CNC4=O"
measurement_type = "pIC50"
result_qualifier = "="
numeric_value = 6.21

[[record]]
molecule = "CC(O)(CS(=O)(=O)c1ccc(F)cc1)C(=O)Nc1ccc(C#N)c(C(F)(F)F)c1 (centres undefined) [BICALUTAMIDE]"
measurement_type = "pIC50"
result_qualifier = "<"
numeric_value = 5.99


* * *

# IC50 per entry
Test system: RT-4
Assay: SANGER: Inhibition of human RT4 cell growth in a cell viability assay.
Type: functional, cell-based
measurement-type: IC50 (µM)

[[record]]
smiles_string = "N#C/C(=C1/Nc2ccccc2S1)c1ccnc(NCCc2cccnc2)n1"
result_qualifier = ">"
numeric_value = 8

[[record]]
smiles_string = "CO[C@@]12[C@H](COC(N)=O)C3=C(C(=O)C(C)=C(N)C3=O)N1C[C@@H]1N[C@@H]12"
result_qualifier = "="
numeric_value = 1.7


* * *

# IC50 per entry
Test system: EM-2
Experiment: cells
Assay type: functional, cell-based
Settings: Homo sapiens
Description: SANGER: Inhibition of human EM-2 cell growth in a cell viability assay.
measurement-type: IC50

[[record]]
compound = "COc1cc(C)c(Sc2cnc(NC(=O)c3ccc(CNC(C)C(C)(C)C)cc3)s2)cc1C(=O)N1CCN(C(C)=O)CC1 (centres undefined)"
target_or_system = "EM-2"
result = "> 10.2 µM"

[[record]]
compound = "O=c1cc(N2CCOCC2)oc2c(-c3cccc4c3sc3ccccc34)cccc12"
target_or_system = "EM-2"
result = "> 2 µM"

[[record]]
compound = "Cc1nc(Nc2ncc(C(=O)Nc3c(C)cccc3Cl)s2)cc(N2CCN(CCO)CC2)n1"
target_or_system = "EM-2"
result = "< 0.005 µM"

[[record]]
compound = "NC(=O)c1ncn([C@@H]2O[C@H](COP(=O)(O)O)[C@@H](O)[C@H]2O)c1N"
target_or_system = "EM-2"
result = "230 µM"


* * *

Tested on: LXF-289 cell line
Assay: cells
Type: functional, cell-based
Details: Homo sapiens
Description: SANGER: Inhibition of human LXF-289 cell growth in a cell viability assay.
measurement-type: IC50 (nM)

[[record]]
compound = "CCNc1cc(N[C@H]2CC[C@@H](O)CC2)nc(Nc2ccc3c(ccn3Cc3ccccc3)c2)n1"
unit_of_measurement = "nM"
result_qualifier = ">"
numeric_value = 5120

[[record]]
compound = "CC[C@]1(O)C[C@@H]2CN(CCc3c([nH]c4ccccc34)[C@@](C(=O)OC)(c3cc4c(cc3OC)N(C)[C@H]3[C@@](O)(C(=O)OC)[C@H](OC(C)=O)[C@]5(CC)C=CCN6CC[C@]43[C@@H]65)C2)C1 [VINBLASTINE]"
unit_of_measurement = "nM"
result_qualifier = "="
numeric_value = 10.3

[[record]]
compound = "C/C=C(/C)C(=O)O[C@H]1C(C)=C2[C@H]([C@@H]1OC(=O)CCCCCCC)[C@@](C)(OC(C)=O)C[C@H](OC(=O)CCC)[C@@]1(O)[C@H]2OC(=O)[C@@]1(C)O [THAPSIGARGIN]"
unit_of_measurement = "nM"
result_qualifier = "<"
numeric_value = 2

[[record]]
compound = "N#C/C(=C1/Nc2ccccc2S1)c1ccnc(NCCc2cccnc2)n1"
unit_of_measurement = "nM"
result_qualifier = ">"
numeric_value = 8000

[[record]]
compound = "O=c1[nH]c2ccccc2n1C1CCN(Cc2ccc(-c3nc4cc5[nH]cnc5cc4nc3-c3ccccc3)cc2)CC1"
unit_of_measurement = "nM"
result_qualifier = "="
numeric_value = 1760

[[record]]
compound = "Cn1c(=O)n(-c2ccc(C(C)(C)C#N)cc2)c2c3cc(-c4cnc5ccccc5c4)ccc3ncc21 [DACTOLISIB]"
unit_of_measurement = "nM"
result_qualifier = "="
numeric_value = 26

[[record]]
compound = "Cn1cc(/C=C2\\C(=O)Nc3cccnc32)c2ccccc21"
unit_of_measurement = "nM"
result_qualifier = ">"
numeric_value = 2000


* * *

# IC50 per entry
Test system: LU-134-A
Experiment: cells
Format: functional, cell-based
Settings: Homo sapiens
Description: SANGER: Inhibition of human LU-134-A cell growth in a cell viability assay.
measurement-type: IC50

[[record]]
molecule = "CC[C@]1(O)C[C@@H]2CN(CCc3c([nH]c4ccccc34)[C@@](C(=O)OC)(c3cc4c(cc3OC)N(C)[C@H]3[C@@](O)(C(=O)OC)[C@H](OC(C)=O)[C@]5(CC)C=CCN6CC[C@]43[C@@H]65)C2)C1"
result = "0.00858 µM"

[[record]]
molecule = "N#C/C(=C1/Nc2ccccc2S1)c1ccnc(NCCc2cccnc2)n1"
result = "> 8 µM"

[[record]]
molecule = "C[C@]12O[C@H](C[C@]1(O)CO)n1c3ccccc3c3c4c(c5c6ccccc6n2c5c31)CNC4=O"
result = "0.6 µM"

[[record]]
molecule = "CC(C)=CC[C@@H](O)C1=CC(=O)c2c(O)ccc(O)c2C1=O"
result = "0.81 µM"

[[record]]
molecule = "Cc1nc(Nc2ncc(C(=O)Nc3c(C)cccc3Cl)s2)cc(N2CCN(CCO)CC2)n1"
result = "> 1.28 µM"

[[record]]
molecule = "CCn1c(-c2nonc2N)nc2cnc(Oc3cccc(NC(=O)c4ccc(OCCN5CCOCC5)cc4)c3)cc21 [GSK-269962A]"
result = "> 2.5 µM"

[[record]]
molecule = "Cn1cc(/C=C2\\C(=O)Nc3cccnc32)c2ccccc21"
result = "> 2 µM"

[[record]]
molecule = "COc1cc(Nc2c(C#N)cnc3cc(OCCCN4CCN(C)CC4)c(OC)cc23)c(Cl)cc1Cl"
result = "> 2 µM"


* * *

System: NH-12
Test: cells
Assay type: functional, cell-based
Conditions: Homo sapiens
Description: SANGER: Inhibition of human NH-12 cell growth in a cell viability assay.
pIC50: −log10 of the molar value.
measurement-type: pIC50

[[record]]
smiles_string = "Cn1cc(/C=C2\\C(=O)Nc3cccnc32)c2ccccc21"
measurement_type = "pIC50"
result_qualifier = "<"
numeric_value = 5.70

[[record]]
smiles_string = "C/C(O)=C(\\C#N)C(=O)Nc1cc(Br)ccc1Br"
measurement_type = "pIC50"
result_qualifier = "<"
numeric_value = 4.80

[[record]]
smiles_string = "CCNC(=O)c1noc(-c2cc(C(C)C)c(O)cc2O)c1-c1ccc(CN2CCOCC2)cc1"
measurement_type = "pIC50"
result_qualifier = "="
numeric_value = 7.35

[[record]]
smiles_string = "CC[C@@]1(O)C(=O)OCc2c1cc1n(c2=O)Cc2cc3ccccc3nc2-1"
measurement_type = "pIC50"
result_qualifier = "="
numeric_value = 8.42

[[record]]
smiles_string = "C[C@]12O[C@H](C[C@]1(O)CO)n1c3ccccc3c3c4c(c5c6ccccc6n2c5c31)CNC4=O"
measurement_type = "pIC50"
result_qualifier = "="
numeric_value = 6.70

[[record]]
smiles_string = "C/C=C(/C)C(=O)O[C@H]1C(C)=C2[C@H]([C@@H]1OC(=O)CCCCCCC)[C@@](C)(OC(C)=O)C[C@H](OC(=O)CCC)[C@@]1(O)[C@H]2OC(=O)[C@@]1(C)O"
measurement_type = "pIC50"
result_qualifier = "="
numeric_value = 7.62

[[record]]
smiles_string = "CCNc1cc(N[C@H]2CC[C@@H](O)CC2)nc(Nc2ccc3c(ccn3Cc3ccccc3)c2)n1"
measurement_type = "pIC50"
result_qualifier = "<"
numeric_value = 5.29

[[record]]
smiles_string = "N#C/C(=C1/Nc2ccccc2S1)c1ccnc(NCCc2cccnc2)n1"
measurement_type = "pIC50"
result_qualifier = "<"
numeric_value = 5.10


* * *

# pIC50 per entry
Test system: SW780
Assay: cells
Assay type: functional, cell-based
Details: Homo sapiens
Description: SANGER: Inhibition of human SW780 cell growth in a cell viability assay.
pIC50: −log10 of the molar value.
measurement-type: pIC50

[[record]]
compound = "Cn1cc(/C=C2\\C(=O)Nc3cccnc32)c2ccccc21"
measurement_type = "pIC50"
result_qualifier = "<"
numeric_value = 5.70

[[record]]
compound = "C/C(O)=C(\\C#N)C(=O)Nc1cc(Br)ccc1Br"
measurement_type = "pIC50"
result_qualifier = "<"
numeric_value = 4.80

[[record]]
compound = "Fc1cc(-c2cc[nH]/c(=N/c3ccc(-n4cnc(N5CCOCC5)n4)cc3)n2)cc(N2CCOCC2)c1"
measurement_type = "pIC50"
result_qualifier = "="
numeric_value = 5.79

[[record]]
compound = "O=C(CCCCCCC(=O)Nc1ccccc1)NO"
measurement_type = "pIC50"
result_qualifier = "="
numeric_value = 5.31

[[record]]
compound = "CC[C@]1(O)C[C@@H]2CN(CCc3c([nH]c4ccccc34)[C@@](C(=O)OC)(c3cc4c(cc3OC)N(C)[C@H]3[C@@](O)(C(=O)OC)[C@H](OC(C)=O)[C@]5(CC)C=CCN6CC[C@]43[C@@H]65)C2)C1"
measurement_type = "pIC50"
result_qualifier = "="
numeric_value = 8.63

[[record]]
compound = "CC(O)(CS(=O)(=O)c1ccc(F)cc1)C(=O)Nc1ccc(C#N)c(C(F)(F)F)c1 (centres undefined) [BICALUTAMIDE]"
measurement_type = "pIC50"
result_qualifier = "<"
numeric_value = 5.99

[[record]]
compound = "NC(=O)c1ncn([C@@H]2O[C@H](COP(=O)(O)O)[C@@H](O)[C@H]2O)c1N"
measurement_type = "pIC50"
result_qualifier = "<"
numeric_value = 2.70

[[record]]
compound = "CC(C)=CC[C@@H](O)C1=CC(=O)c2c(O)ccc(O)c2C1=O"
measurement_type = "pIC50"
result_qualifier = "="
numeric_value = 6.39

[[record]]
compound = "O=c1cc(N2CCOCC2)oc2c(-c3cccc4c3sc3ccccc34)cccc12"
measurement_type = "pIC50"
result_qualifier = "<"
numeric_value = 5.70


Provenance of the data: ChEMBL document CHEMBL1201861
